Test: Terminal half life in B6 mouse at 25 mg/kg, ip by UV-HPLC analysis
Assay type: ADME, organism-based
Details: in vivo, read-out: beta t1/2 (converted)
Assign half-life to each entry below.
One number for each entry, in h.

See these solved cases before continuing.
{"structure-notation": "CCONC(=O)c1ccccc1Sc1ccc2c(/C=C/c3ccccn3)n[nH]c2c1", "half-life [h]": 4.1}
{"structure-notation": "Cc1ccc2cc(NC(=O)c3ccccc3Sc3ccc4c(/C=C/c5ccccn5)n[nH]c4c3)ccc2n1", "half-life [h]": 3}

List half-life for every entry below, keeping the order given.
1. O=C(c1cccc(NC(=O)c2cccc3[nH]ccc23)c1)c1ccc2c(/C=C/c3ccccn3)n[nH]c2c1
2. C=C(C)CNC(=O)c1ccccc1Sc1ccc2c(/C=C/c3ccccn3)n[nH]c2c1
3. Cc1cc(C(=O)Nc2cccc(C(=O)c3ccc4c(/C=C/c5ccccn5)n[nH]c4c3)c2)n[nH]1
4. O=C(NCC1CC1)c1ccccc1Sc1ccc2c(/C=C/c3ccccn3)n[nH]c2c1

[out]
1. 2.8
2. 1.5
3. 0.3
4. 0.9

Can you give me half-life for all of these, one by one?
1. O=C(Nc1cccc(C(=O)c2ccc3c(/C=C/c4ccccc4)n[nH]c3c2)c1)c1ccncc1
2. Cn1nc(C(C)(C)C)cc1C(=O)Nc1cccc(C(=O)c2ccc3c(/C=C/c4ccccn4)n[nH]c3c2)c1

[out]
1. 1.6
2. 3.2

Need half-life for each of these molecules.
1. CC(=O)c1ccc(C(=O)Nc2cccc(C(=O)c3ccc4c(/C=C/c5ccccn5)n[nH]c4c3)c2)s1
2. O=C(Nc1cccc(C(=O)c2ccc3c(/C=N/n4cccc4)n[nH]c3c2)c1)c1ccccc1
3. CCn1nc(C)cc1C(=O)Nc1cccc(C(=O)c2ccc3c(/C=C/c4ccccn4)n[nH]c3c2)c1
4. O=C(NCC(F)(F)F)c1ccccc1Sc1ccc2c(/C=C/c3ccccn3)n[nH]c2c1
5. O=C(NCc1ccccc1F)c1ccccc1Sc1ccc2c(/C=C/c3ccccn3)n[nH]c2c1
6. Cn1cccc1C(=O)NNC(=O)c1ccccc1Sc1ccc2c(/C=C/c3ccccn3)n[nH]c2c1
7. C=CCONC(=O)c1ccccc1Sc1ccc2c(/C=C/c3ccccn3)n[nH]c2c1

[out]
1. 1.6
2. 2
3. 2.9
4. 2.4
5. 3.8
6. 1.8
7. 1.3

I would be grateful if you could provide half-life for each of the following entries.
1. CCOCCNC(=O)c1ccccc1Sc1ccc2c(/C=C/c3ccccn3)n[nH]c2c1
2. CC(C)NC(=O)c1ccccc1Sc1ccc2c(/C=C/c3ccccn3)n[nH]c2c1

[out]
1. 1.8
2. 0.8

[in] Answer with the recorded half-life of O=C(c1cccc(NC(=O)c2ccccn2)c1)c1ccc2c(/C=C/c3ccccc3)n[nH]c2c1 only.
[out] 2.2
